experiment: Selectivity for TACE over MMP2
Kindly state Selectivity ratio for each of the entries shown.
Lab note: jot the number down without any unit.

// query Fill in Selectivity ratio for record CC#CCOc1ccc(S(=O)(=O)CC2(C(=O)NO)CCN(S(=O)(=O)C(C)C)CC2)cc1
// result 230

// query # return recorded Selectivity ratio for input Cc1cc(COc2ccc(S(=O)(=O)CC3C(C(=O)NO)CCN3C)cc2)c2ccccc2n1 (stereo unspecified)
// result 2000

// query Using known records, supply Selectivity ratio for Cc1cc(COc2ccc(N3CCC([C@H](NC(=O)OC(C)(C)C)C(=O)NO)C3=O)cc2)c2ccccc2n1 (stereo partly specified)
// result 300

###

test: Selectivity for TACE over MMP9
parameter measured: Selectivity ratio
Answer with a bare number; do not write a unit.

// query Please supply the value of reported Selectivity ratio for the item Cc1cc(COc2ccc(S(=O)(=O)CC3C(C(=O)NO)CCN3C)cc2)c2ccccc2n1 (centres undefined)
// result 2000

// query // Input: Cc1cc(COc2ccc(N3CCC([C@H](NC(=O)OC(C)(C)C)C(=O)NO)C3=O)cc2)c2ccccc2n1 (some centres undefined) . Output its Selectivity ratio only.
// result 300

###

biological target: Disintegrin and metalloproteinase domain-containing protein 17 (Homo sapiens); assay: Inhibition of TACE
Exercise: state measured IC50 for each of the compounds provided.
Note: unit nM is implicit; provide only the numeric part.

// query Identify measured IC50 corresponding to C/C=C/C=C/C=C1/C=C(CCC(=O)NO)C(=O)OC1
// result 28

// query Complete the entry with IC50 for CC(C)Cc1ccc([C@]2(C)CCN([C@H](C)C(=O)NO)C2=O)cc1
// result 1000

// query Return value of IC50 for input CCOP(=O)(N[C@@H](CC(C)C)C(=O)NO)c1ccc(OC)cc1 (stereo partly drawn) , no commentary.
// result 76

// query Please give measured IC50 of the following entry: C=CCONC(=O)[C@@H]1[C@@H](C)N(C(C)=O)CCN1S(=O)(=O)c1ccc(OCc2ccc(C)cc2)cc1
// result 1

// query Give reported IC50 value for CC(C)C[C@@H](C(=O)NN(CC(C)C)S(C)(=O)=O)[C@H](C/C=C/c1ccccc1)C(=O)NO
// result 3

// query Input C[C@H](C(=O)NO)N1CC[C@@](C)(c2ccc(Oc3ccccc3)cc2)C1=O , output reported IC50.
// result 185

// query For the compound Cc1cc(OCc2ccc(NC(=O)[C@H]3CCCC[C@@H]3C(=O)NO)cc2)c2ccccc2n1 , report IC50.
// result 8

// query Complete the entry with IC50 for O=C(NO)[C@@H]1CC[C@H](O)CN1S(=O)(=O)c1ccc(OCc2ccccc2I)cc1
// result 110000

###

biological target: Disintegrin and metalloproteinase domain-containing protein 17 (Homo sapiens, UniProt P78536); test: Inhibition of TACE
Sequence (P78536 whole entry, the tested form may be a part): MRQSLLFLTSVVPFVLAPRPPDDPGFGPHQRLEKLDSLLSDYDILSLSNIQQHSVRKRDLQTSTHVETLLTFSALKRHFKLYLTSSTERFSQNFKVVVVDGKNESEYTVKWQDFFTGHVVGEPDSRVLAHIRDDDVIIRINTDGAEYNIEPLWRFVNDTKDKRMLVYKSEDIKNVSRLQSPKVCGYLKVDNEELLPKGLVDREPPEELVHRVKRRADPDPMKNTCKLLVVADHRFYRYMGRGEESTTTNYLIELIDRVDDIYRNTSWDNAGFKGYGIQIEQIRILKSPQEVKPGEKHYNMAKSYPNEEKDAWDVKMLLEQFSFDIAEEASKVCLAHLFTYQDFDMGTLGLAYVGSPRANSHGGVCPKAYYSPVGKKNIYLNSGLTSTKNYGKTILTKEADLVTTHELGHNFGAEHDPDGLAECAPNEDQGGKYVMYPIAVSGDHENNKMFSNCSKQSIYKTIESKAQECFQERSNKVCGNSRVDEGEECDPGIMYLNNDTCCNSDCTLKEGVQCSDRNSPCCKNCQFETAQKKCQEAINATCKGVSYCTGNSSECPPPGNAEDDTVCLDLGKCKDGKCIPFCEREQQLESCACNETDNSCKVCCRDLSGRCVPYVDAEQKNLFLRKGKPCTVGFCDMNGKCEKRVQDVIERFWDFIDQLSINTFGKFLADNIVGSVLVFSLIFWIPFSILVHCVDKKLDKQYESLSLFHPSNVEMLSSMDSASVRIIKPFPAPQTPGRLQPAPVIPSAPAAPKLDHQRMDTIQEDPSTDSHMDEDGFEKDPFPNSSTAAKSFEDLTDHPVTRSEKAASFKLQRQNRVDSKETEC
parameter measured: pIC50
Convention used: pIC50 is expressed as -log10 of the molar concentration.

// query Supply recorded pIC50 for Cc1cc(COc2ccc(C3(C)C(=O)NC(=O)NC3=O)cc2)c2ccccc2n1 here.
// result 9.00

// query Fill in reported pIC50 for this entry: CC1(C)SCCN(S(=O)(=O)c2ccc(OCC#CCO)cc2)[C@H]1C(=O)NO
// result 6.36

// query Provide measured pIC50 value, entry: Cc1cc(COc2ccc([C@]3(N)CCN([C@H](CC(C)C)C(=O)NO)C3=O)cc2)c2ccccc2n1
// result 9.70

// query Supply measured pIC50 of Cc1cc(COc2ccc(NC(=O)[C@@H]3[C@@H](C(=O)NO)CCCN3C)cc2)c2ccccc2n1 in your reply.
// result 8.21

// query Provide one value: measured pIC50 of Cc1cc(COc2ccc(S(=O)(=O)CC3C(C(=O)NO)CCN3C)cc2)c2ccccc2n1 (centres undefined)
// result 9.00

// query Write down pIC50 measured for item Cc1cc(COc2ccc(C(=O)NC3(C)C(=O)NC(=O)NC3=O)cc2)c2ccccc2n1
// result 10.59

// query Give recorded pIC50. CC#CCOc1ccc(S(=O)(=O)N(C)c2c(N3CCN(C)CC3)ccc(Br)c2C(=O)NO)cc1
// result 7.60

// query Output pIC50 of Cc1cc(COc2ccc(N3CC[C@](C)(CC(=O)NO)C3=O)cc2)c2ccccc2n1
// result 9.00

###

experiment: Half life in rat LPS model; assay type: ADME, organism-based; settings: in vivo
parameter measured: half-life

// query Tell us which half-life value is on record for CC[C@H](C)[C@H](NC(=O)[C@H](CC(C)C)[C@H](C(C)C)N(O)C=O)C(=O)Nc1ccccn1
// result > 12 h

###

parameter measured: pIC50
Answer as the number alone; pIC50 is minus log10 of concentration in mol/L.

// query Report value only: pIC50, Disintegrin and metalloproteinase domain-containing protein 17 (Sus scrofa), Cc1cc(COc2ccc(C(=O)NCCC(=O)NO)cc2)c2ccccc2n1
// result 9.00

###

test: Selectivity for TACE over MMP1
parameter measured: Selectivity ratio
Give only the figure.

// query Output measured Selectivity ratio for this item: Cc1cc(COc2ccc(S(=O)(=O)CC3C(C(=O)NO)CCN3C)cc2)c2ccccc2n1 (stereo not drawn)
// result 2000

// query Indicate the recorded Selectivity ratio value for this compound: CC#CCOc1ccc(S(=O)(=O)N(C)c2c(N3CCN(C)CC3)ccc(Br)c2C(=O)NO)cc1
// result 500

// query Please give the documented Selectivity ratio of Cc1cc(COc2ccc(N3CCC([C@H](NC(=O)OC(C)(C)C)C(=O)NO)C3=O)cc2)c2ccccc2n1 (stereo partly drawn)
// result 700

// query Determine its reported Selectivity ratio: CC#CCOc1ccc(S(=O)(=O)N(C)c2c(C(=O)NO)cnc3c(OC)cccc23)cc1
// result 50

###

assay: Selectivity for TACE over MMP2
Hi there, I'd appreciate the recorded Selectivity ratio for every entry that follows.

// query Report Selectivity ratio for C[C@H](C(=O)NO)N1CC[C@@](C)(c2ccc(OCc3cc(C(F)(F)F)cc(C(F)(F)F)c3)cc2)C1=O
// result > 1000

// query Please report Selectivity ratio for the following molecule: Cc1cc(COc2ccc(N3C(C(=O)NO)CCCS3(=O)=O)cc2)c2ccccc2n1 (stereo not drawn)
// result > 1000

// query Supply reported Selectivity ratio belonging to this molecule: Cc1cc(COc2ccc(C(=O)N[C@@H]3COCC[C@@H]3C(=O)NO)cc2)c2ccccc2n1
// result > 30000

###

assay: Selectivity for TACE over MMP1
parameter measured: Selectivity ratio

// query Consider the compound CC#CCOc1ccc(S(=O)(=O)N2Cc3ccc(CO)cc3N(C(C)=O)CC2C(=O)NO)cc1 (centres undefined) . State its measured Selectivity ratio.
// result > 40

// query Identify measured Selectivity ratio associated with Cc1cc(COc2ccc(N3C(C(=O)NO)CCCS3(=O)=O)cc2)c2ccccc2n1 (centres undefined)
// result > 1000

// query Please give the documented Selectivity ratio of Cc1cc(COc2ccc(C(=O)N[C@@H]3COCC[C@@H]3C(=O)NO)cc2)c2ccccc2n1
// result > 30000

// query Please indicate Selectivity ratio recorded for C[C@H](C(=O)NO)N1CC[C@@](C)(c2ccc(OCc3cc(C(F)(F)F)cc(C(F)(F)F)c3)cc2)C1=O
// result > 1000
